Data provenance is PubChem BioAssay AID1259343.

# EXPERIMENTAL_DETAILS: Mycobacterium tuberculosis growth inhibition, primary screen (AID 1259343)
# MEASUREMENT_CONDITIONS: at 10 µM, stronger effect = higher value
Among all 6,200 compounds or so, about 2,900 (47%) were called active. The set was probably picked from earlier hits. The list shows a part of the results.
Mark yes (1) for reported inhibition of 70% or greater; mark no (0) for anything smaller.

{"COMPOUND": "OCC1(CCc2ccccc2)CCCN(Cc2cc3ccccc3o2)C1 (stereo unspecified)", "GROUP": "no (0)"}
{"COMPOUND": "CS(=O)(=O)NC(=O)c1ccc(Oc2ccc(F)cc2F)cc1", "GROUP": "yes (1)"}
{"COMPOUND": "Brc1cc(CNc2cccnc2N2CCCC2)cs1", "GROUP": "no (0)"}
{"COMPOUND": "Cc1cc(C)n(-c2nc(NC(C)C)nc(NC(C)(C)C)n2)n1", "GROUP": "yes (1)"}
{"COMPOUND": "Cc1cc(Br)ccc1NCC(=O)N1CCCCC1", "GROUP": "yes (1)"}
{"COMPOUND": "Cc1nc(CSc2ccc(C(=O)NNC(=O)c3ccc4c(c3)OCCO4)cc2)cs1", "GROUP": "yes (1)"}

====

# EXPERIMENTAL_DETAILS: Mycobacterium tuberculosis growth inhibition, primary screen (AID 1259343)
# MEASUREMENT_CONDITIONS: at 10 µM
Among all 6,200 compounds or so, about 2,900 (47%) were called active. Rule as the data show it: active = inhibition above about 50%; inactive = the rest. The set was probably picked from earlier hits. The list shows a part of the results.
Classes used: active, inactive

{"MOLECULE_SMILES": "O=C(Cc1cc(-c2cc3ccccc3o2)on1)NCc1ccco1", "GROUP": "active"}
{"MOLECULE_SMILES": "Nc1nnc(SCC2CC2)s1", "GROUP": "active"}
{"MOLECULE_SMILES": "O=C1c2cccc([N+](=O)[O-])c2C(=O)N1CNc1ccc(Cl)c(Cl)c1", "GROUP": "inactive"}
{"MOLECULE_SMILES": "CCc1ccc(-c2noc(CSc3nnc(N)s3)n2)cc1", "GROUP": "inactive"}
{"MOLECULE_SMILES": "Nc1nnc(SCc2ccc(Br)cc2F)s1", "GROUP": "inactive"}
{"MOLECULE_SMILES": "O=C(Cc1cc(-c2cc3ccccc3o2)on1)NCc1cccs1", "GROUP": "inactive"}

====

# EXPERIMENTAL_DETAILS: Mycobacterium tuberculosis growth inhibition, primary screen (AID 1259343)
# MEASUREMENT_CONDITIONS: at 10 µM
In all, about 6,200 compounds went through this assay and about 2,900 (47%) were called active. Rule as the data show it: active = inhibition above about 50%; inactive = the rest. The set was probably picked from earlier hits. This is one part of the list.
Outcomes: 1 (active), 0 (inactive)

{"MOLECULE": "C/C=C/c1c(F)c(F)c(Oc2ccc(C=O)cc2)c(F)c1F", "GROUP": 1}
{"MOLECULE": "COCC(C)NC(=O)C12CCC(C)(C(=O)O1)C2(C)C (configuration not stated)", "GROUP": 1}
{"MOLECULE": "CC(C)c1ccc(C=c2sc(=CC(=O)C(C)(C)C)[nH]c2=O)cc1", "GROUP": 1}
{"MOLECULE": "COc1ccc2cc(-c3[nH]ncc3CNC(C)Cc3cccs3)ccc2c1 (configuration not stated)", "GROUP": 1}
{"MOLECULE": "CCc1cc2c(SCC(=O)C(C)(C)C)ncnc2s1", "GROUP": 0}
{"MOLECULE": "CCc1cc2c(=O)n(NC(=O)c3cccc(C)n3)cnc2s1", "GROUP": 1}
{"MOLECULE": "COC(=O)c1ccc(CSC(=S)N(C)C)cc1", "GROUP": 1}
{"MOLECULE": "COc1ccc(-c2[nH]ncc2CNC(=O)CC2COCCN2)cc1 (configuration not stated)", "GROUP": 0}
{"MOLECULE": "Cc1cccc(NC(C)c2nnc(-c3cccs3)o2)c1C (configuration not stated)", "GROUP": 1}
{"MOLECULE": "CCc1cc2c(N3CCCCC3)ncnc2s1", "GROUP": 0}
{"MOLECULE": "COCC(C)NC(=O)c1ccc(CSc2ccccc2)o1 (configuration not stated)", "GROUP": 0}
{"MOLECULE": "Cc1ccc(Cn2nc(C)c(C=c3s/c(=C\\C(=O)C(C)(C)C)[nH]c3=O)c2C)cc1", "GROUP": 0}

====

# EXPERIMENTAL_DETAILS: Mycobacterium tuberculosis growth inhibition, primary screen (AID 1259343)
# MEASUREMENT_CONDITIONS: at 10 µM
Hit rate of the full screen: of about 6,200 compounds, about 2,900 (47%) were called active. Rule as the data show it: active = inhibition above about 50%; inactive = the rest. The set was probably picked from earlier hits. The list shows a part of the results.
Outcomes: yes (1) = active, no (0) = inactive

{"COMPOUND": "CN(CC(F)(F)C(F)F)S(=O)c1ccc2ccccc2c1 (stereo not drawn)", "GROUP": "no (0)"}
{"COMPOUND": "O=C(N/N=C1/CCSc2c(F)cccc21)c1ccccc1", "GROUP": "no (0)"}
{"COMPOUND": "N#Cc1ccc(-c2ccc(OCC(=O)c3ccc4c(c3)CC(=O)N4)cc2)cc1", "GROUP": "no (0)"}
{"COMPOUND": "Cc1cccc(-c2ccc(NC(=O)C3CCN(C(=O)c4nonc4C)CC3)cc2)c1", "GROUP": "yes (1)"}
{"COMPOUND": "CC(C)Oc1ccc(CNC(=O)c2ccco2)cc1F", "GROUP": "yes (1)"}
{"COMPOUND": "COc1ccc(OCCCOc2cccc(Cl)c2Cl)cc1", "GROUP": "no (0)"}
{"COMPOUND": "Cc1ccc(CC2CCCN(c3cn[nH]c(=O)c3Cl)C2)cc1 (stereo not drawn)", "GROUP": "no (0)"}
{"COMPOUND": "O=C(Cc1ccccc1O)N1CCc2cc(Br)ccc21", "GROUP": "no (0)"}
{"COMPOUND": "O=c1c(-c2ccccc2)c1-c1ccccc1", "GROUP": "yes (1)"}
{"COMPOUND": "CCCCCCCC1C(C#N)=C(N)SC(N)=C1C#N", "GROUP": "yes (1)"}
{"COMPOUND": "Fc1cccc(Cl)c1C1Nc2cccc3cccc(c23)N1", "GROUP": "no (0)"}
{"COMPOUND": "CC(=O)Nc1nc(COc2ccc(Cl)cc2Br)cs1", "GROUP": "no (0)"}
{"COMPOUND": "COc1ccccc1OCCCCOc1ccc(I)cc1", "GROUP": "yes (1)"}
{"COMPOUND": "O=C(CC1CCCO1)NCc1cccc(OCc2ccccc2)c1 (stereo not drawn)", "GROUP": "no (0)"}
{"COMPOUND": "COc1cc(/C=C/C(=O)O)ccc1O", "GROUP": "no (0)"}
{"COMPOUND": "O=C(/C=C/c1ccc(O)c(O)c1)OCCc1ccccc1", "GROUP": "yes (1)"}
{"COMPOUND": "Cc1cc(C)n(CC(O)COc2ccc3c(c2)CCC3)n1 (stereo not drawn)", "GROUP": "yes (1)"}
{"COMPOUND": "CC1(CCc2ccccc2)CCN(c2cn[nH]c(=O)c2Cl)C1 (stereo not drawn)", "GROUP": "yes (1)"}
{"COMPOUND": "O=C1C(=O)N(C2CCCC2)C(=O)N1CC1CCCCC1", "GROUP": "no (0)"}
{"COMPOUND": "CC(=O)c1ccc(OCCOc2ccc(C#N)cc2)cc1", "GROUP": "yes (1)"}
{"COMPOUND": "Cn1nc2c(c1NC(=O)c1ccc(Cc3ccccc3)cc1)CCC2", "GROUP": "yes (1)"}
{"COMPOUND": "Cc1noc(-c2ccnc(NCc3ccc(C#N)cc3)c2)n1", "GROUP": "no (0)"}
{"COMPOUND": "COc1ccc(OCCN(C)S(=O)(=O)c2ccc3c(c2)CCC3)cc1", "GROUP": "no (0)"}
{"COMPOUND": "CC1(C)OC(=O)C(=C2C3C4CC5C2C2C3CC4C52)C(=O)O1 (stereo not drawn)", "GROUP": "no (0)"}
{"COMPOUND": "CC(C)COc1ccc(NC(=O)c2nn(C)c(=O)c3ccccc23)cc1Cl", "GROUP": "no (0)"}
{"COMPOUND": "CCCCCCc1ccc(C(=O)Nc2ccc(-n3nc(OC)nc3-c3ccc4c(c3)OCO4)cc2)cc1", "GROUP": "yes (1)"}
{"COMPOUND": "CCCNC(=O)CN1CCc2cc(Br)ccc21", "GROUP": "yes (1)"}
{"COMPOUND": "COc1ccccc1OCCCOc1ccc(F)cc1", "GROUP": "no (0)"}
{"COMPOUND": "O=C(Nc1ccc(N2CCC(NCCC3=CCCCC3)CC2)cc1)c1ccc2c(c1)OCO2", "GROUP": "no (0)"}
{"COMPOUND": "Cc1ccccc1C(=O)OC1CCCN(C)C1 (stereo not drawn)", "GROUP": "no (0)"}
{"COMPOUND": "Nc1nc(COc2ccc(Cl)cc2Cl)cs1", "GROUP": "yes (1)"}
{"COMPOUND": "CCc1ccc(NC(=O)COC(=O)c2cc(C(C)=O)n3ccccc23)cc1", "GROUP": "yes (1)"}
{"COMPOUND": "Cc1[nH]nc(C(=O)N(Cc2cccc(F)c2)CC2CCCO2)c1Br (stereo not drawn)", "GROUP": "no (0)"}
{"COMPOUND": "CC(NC(=O)c1cncc(Br)c1)c1ccc(Cl)cc1 (stereo not drawn)", "GROUP": "yes (1)"}
{"COMPOUND": "O=c1cc(CN2CCc3ccccc32)occ1OCc1ccc(Cl)cc1", "GROUP": "no (0)"}
{"COMPOUND": "CCC1CCC(=NNC(=O)c2ccc(COc3ccccc3)cc2)CC1 (stereo not drawn)", "GROUP": "yes (1)"}
{"COMPOUND": "O=c1c(Cl)c(Oc2ccccc2)cnn1Cc1ccccc1", "GROUP": "no (0)"}
{"COMPOUND": "CN(CCCC(=O)Nc1ccc2[nH]c(=S)oc2c1)C(=O)OC(C)(C)C", "GROUP": "yes (1)"}
{"COMPOUND": "CC(C)Cn1c(-c2ccco2)nc2c(c(=O)c3ccccc3n2C)c1=O", "GROUP": "no (0)"}
{"COMPOUND": "Fc1ccc(Br)cc1C1Nc2cccc3cccc(c23)N1", "GROUP": "no (0)"}
{"COMPOUND": "CCOc1cccc(-c2cccc(-n3cnnc3)c2)c1", "GROUP": "yes (1)"}
{"COMPOUND": "COc1ccc(CN(Cc2ccco2)CC(O)COc2ccc(Cl)cc2)cc1 (stereo not drawn)", "GROUP": "no (0)"}
{"COMPOUND": "Cc1ccc(S(=O)(=O)CCC(=O)Nc2ccc(C)c(C)c2)cc1", "GROUP": "yes (1)"}
{"COMPOUND": "CCc1sc(C(=O)OCC(=O)N(C)CC(=O)Nc2ccc(C)cc2)cc1C", "GROUP": "no (0)"}
{"COMPOUND": "Cc1nn(CC(O)COc2ccc3c(c2)CCC3)c(C)c1C (stereo not drawn)", "GROUP": "yes (1)"}
{"COMPOUND": "Cc1cc(C)cc(NC(=O)COc2coc(CN3CCc4ccccc43)cc2=O)c1", "GROUP": "yes (1)"}
{"COMPOUND": "CC(C)COc1ccc(NC(=O)C2CC2c2cnn(C)c2)cc1Cl (stereo not drawn)", "GROUP": "no (0)"}
{"COMPOUND": "O=C(CSc1nnc(CCn2ccc(=O)[nH]c2=O)o1)N1CCc2ccccc2C1", "GROUP": "no (0)"}
